Documented Growth Rate across a set of molecules
Test system: U2OS
PROCEDURE SUMMARY: Incucyte cell viability with U2OS; further: filed as whole numbers so only -1 and 0 and 1 occur
Format: toxicity, cell-based
CONDITION LABEL: human, 24 h, 10 µM, compound concentration 10 uM, replicate number 1, timepoint 24 hours
Answer field: number only, no words.

Some solved entries appear below for comparison.
>>> number("Cc1nc(N2CC[C@H](O)C2)ncc1-c1cc(C(F)(F)F)cc2[nH]ncc12")
0
>>> number("COc1cc2c(cc1NS(=O)(=O)c1ccc(Br)cc1C)n(C)c(=O)n2C")
1
>>> number("Cc1cc(C(C)(C)C)c(O)c(C)c1CC1=NCCN1.Cl [OXYMETAZOLINE HYDROCHLORIDE]")
0
>>> number("O=C(Nc1ccc(Oc2ccc(F)cc2)cc1)N1CCc2ncccc2[C@H]1c1ccc(F)cc1 [BAY-897]")
1

# next molecule below
Entry CC(C)Oc1ccc(-c2c[nH]cc2CN(C)CCN)cc1 , Growth Rate reported as 0
